Biological target: D(4) dopamine receptor (Homo sapiens, UniProt P21917)
Sequence (P21917 whole entry): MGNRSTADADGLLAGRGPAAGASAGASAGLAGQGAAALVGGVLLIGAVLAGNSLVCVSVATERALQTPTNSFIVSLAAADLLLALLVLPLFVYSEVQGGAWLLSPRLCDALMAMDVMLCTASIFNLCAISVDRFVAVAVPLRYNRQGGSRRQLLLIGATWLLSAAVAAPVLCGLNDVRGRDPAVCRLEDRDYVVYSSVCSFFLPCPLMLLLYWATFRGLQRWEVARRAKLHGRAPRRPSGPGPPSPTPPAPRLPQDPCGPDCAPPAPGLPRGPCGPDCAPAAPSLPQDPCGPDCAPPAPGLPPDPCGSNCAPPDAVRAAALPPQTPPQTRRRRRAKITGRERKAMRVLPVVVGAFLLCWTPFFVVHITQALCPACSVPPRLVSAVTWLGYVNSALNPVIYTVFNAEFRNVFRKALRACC

# Molecule, Measurement Target, Ki
measured = [
    ("CCCN[C@H]1CCc2ccc(OC)cc2C1", "D(4) dopamine receptor (Homo sapiens, UniProt P21917)", "> 3.33 µM"),
    ("COc1ccc2c(c1)CC(N)CC2 (centres undefined)", "D(4) dopamine receptor (Homo sapiens, UniProt P21917)", "> 3.33 µM"),
    ("NC1CCc2ccc(O)cc2C1 (centres undefined)", "D(4) dopamine receptor (Homo sapiens, UniProt P21917)", "> 3.33 µM"),
    ("CCCCNC1CCc2c(cccc2OC)C1 (centres undefined)", "D(4) dopamine receptor (Homo sapiens, UniProt P21917)", "> 3.33 µM"),
]

====

biological target: D(2) dopamine receptor (Homo sapiens, UniProt P14416); experiment: biochemical
Sequence (P14416 whole entry): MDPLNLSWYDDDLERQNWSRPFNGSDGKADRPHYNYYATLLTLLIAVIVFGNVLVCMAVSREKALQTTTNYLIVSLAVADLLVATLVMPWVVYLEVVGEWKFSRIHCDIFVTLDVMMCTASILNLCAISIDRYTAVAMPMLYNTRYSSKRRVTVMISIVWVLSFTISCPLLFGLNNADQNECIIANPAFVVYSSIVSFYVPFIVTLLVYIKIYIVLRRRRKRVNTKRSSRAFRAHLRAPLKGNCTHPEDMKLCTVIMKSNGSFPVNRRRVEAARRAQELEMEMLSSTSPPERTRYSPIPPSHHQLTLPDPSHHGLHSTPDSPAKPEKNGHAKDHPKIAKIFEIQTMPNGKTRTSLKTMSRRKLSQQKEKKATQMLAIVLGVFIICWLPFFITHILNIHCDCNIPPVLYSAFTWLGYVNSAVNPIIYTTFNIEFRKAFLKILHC
Description: Binding affinity was evaluated by calculating competition for [3H]spiperone binding on Dopamine receptor D2L of CHO K-1 cells.
pKi: −log10 of the molar value.
List of pKi values.
Measured Quantity: pKi

# Compound, Meas Value
rows = [
    ("CCCNC1CCc2c(cccc2OC)C1 (stereo unspecified)", 6.42),
    ("CCCN(CCC)C1CCc2c(cccc2OC)C1 (stereo unspecified)", 6.38),
    ("CCCNC1CCc2ccc(O)cc2C1 (stereo unspecified)", 6.08),
    ("CCCN(CCc1cccs1)C1CCc2c(cccc2OC2CCCC2)C1 (stereo unspecified)", 5.98),
    ("CCCN(CCC)[C@H]1CCc2ccc(OC)cc2C1", 5.47),
    ("CCCN(CCc1cccs1)[C@H]1CCc2c(O)cccc2C1", 7.70),
    ("CCCN(CCc1cccs1)C1CCc2ccc(O)cc2C1 (stereo unspecified)", 7.23),
    ("CCCN(CCc1ccsc1)C1CCc2c(O)cccc2C1 (stereo unspecified)", 7.62),
    ("COc1cccc2c1CCC(N(C)C)C2 (stereo unspecified)", 6.74),
    ("NC1CCc2ccc(O)cc2C1 (stereo unspecified)", 7.11),
    ("CCCN1COC[C@@H]2c3cc(O)ccc3OC[C@H]21", 5.93),
]

====

Target: D(4) dopamine receptor (Homo sapiens, UniProt P21917)
Sequence (P21917 whole entry): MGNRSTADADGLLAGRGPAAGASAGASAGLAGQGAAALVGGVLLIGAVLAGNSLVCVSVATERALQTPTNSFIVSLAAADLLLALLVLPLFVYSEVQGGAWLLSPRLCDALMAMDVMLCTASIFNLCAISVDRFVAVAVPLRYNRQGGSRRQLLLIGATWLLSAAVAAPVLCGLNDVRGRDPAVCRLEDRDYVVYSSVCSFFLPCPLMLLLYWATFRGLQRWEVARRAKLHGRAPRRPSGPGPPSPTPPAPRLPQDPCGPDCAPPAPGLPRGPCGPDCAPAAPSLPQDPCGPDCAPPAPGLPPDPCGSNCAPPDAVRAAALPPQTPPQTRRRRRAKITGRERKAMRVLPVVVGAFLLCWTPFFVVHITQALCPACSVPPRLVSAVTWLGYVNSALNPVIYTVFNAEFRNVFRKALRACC
pKi: −log10 of the molar value.

# Compound, pKi
measured = [
    ("CCCN[C@@H]1CCc2ccc(OC)cc2C1", "< 5.48"),
    ("COc1cccc2c1CCC(N)C2 (centres undefined)", "< 4.48"),
    ("CCCN(CCC)C1CCc2ccc(O)cc2C1 (single isomer, unassigned)", "< 5.48"),
    ("NC1CCc2c(O)cccc2C1 (centres undefined)", "< 5.48"),
]
